System: wt-TMD8 diffuse large B-cell lymphoma cells
Assay: Cell proliferation assay wt-TMD8 (ATPlite, 120 hours)
Assay type: cell-based
Settings: B-cell; wt-TMD8 cells, 120 hours, ATPlite; read-out: IC50 wt-TMD8
PROPERTY LABEL: IC50

// known answers, use as guide
COMPOUND	IC50
C[C@@H]1CC(=O)N[C@@H]2CCC[C@H](C2)n2nc(-c3ccc(C(=O)Nc4cc(C(F)(F)F)ccn4)cc3)c3c(N)ncc(c32)/C=C/CCN1C [Example 40]	< 100 nM
N#Cc1ccnc(NC(=O)c2ccc(-c3nc4n5c(cnc(N)c35)/C=C/CCOCCC(=O)N[C@@H]3CC[C@@H]4C3)cc2)c1 [Example 201]	< 100 nM
CN1CC/C=C/c2cnc(N)c3c(-c4ccc(C(=O)Nc5cc(C(F)(F)F)ccn5)cc4)nn(c23)[C@@H]2CCC[C@H](C2)NC(=O)CC1 [Example 38]	< 100 nM
C[C@@H]1CCn2nc(-c3ccc(C(=O)Nc4cc(C(F)(F)F)ccn4)cc3)c3c(N)ncc(c32)/C=C/COCCC(=O)N1 [Example 71]	< 100 nM
Nc1ncc2n3c(nc(-c4ccc(C(=O)Nc5cc(C(F)(F)F)ccn5)cc4)c13)[C@@H]1CCC[C@H](C1)NC(=O)CCCC/C=C/2 [Example 130]	< 100 nM

Turning to the following compound.
GET /value?item= C[C@H]1CC(=O)N[C@@H]2CCC[C@H](C2)n2nc(-c3ccc(C(=O)Nc4cc(C(F)(F)F)ccn4)cc3)c3c(N)ncc(c32)/C=C/CN1C [Example 151] &field=IC50 returns < 100 nM

* * *

Target: BTK T316A (Homo sapiens (Human), UniProt Q06187, T316A)
Sequence (Q06187 whole entry T316A): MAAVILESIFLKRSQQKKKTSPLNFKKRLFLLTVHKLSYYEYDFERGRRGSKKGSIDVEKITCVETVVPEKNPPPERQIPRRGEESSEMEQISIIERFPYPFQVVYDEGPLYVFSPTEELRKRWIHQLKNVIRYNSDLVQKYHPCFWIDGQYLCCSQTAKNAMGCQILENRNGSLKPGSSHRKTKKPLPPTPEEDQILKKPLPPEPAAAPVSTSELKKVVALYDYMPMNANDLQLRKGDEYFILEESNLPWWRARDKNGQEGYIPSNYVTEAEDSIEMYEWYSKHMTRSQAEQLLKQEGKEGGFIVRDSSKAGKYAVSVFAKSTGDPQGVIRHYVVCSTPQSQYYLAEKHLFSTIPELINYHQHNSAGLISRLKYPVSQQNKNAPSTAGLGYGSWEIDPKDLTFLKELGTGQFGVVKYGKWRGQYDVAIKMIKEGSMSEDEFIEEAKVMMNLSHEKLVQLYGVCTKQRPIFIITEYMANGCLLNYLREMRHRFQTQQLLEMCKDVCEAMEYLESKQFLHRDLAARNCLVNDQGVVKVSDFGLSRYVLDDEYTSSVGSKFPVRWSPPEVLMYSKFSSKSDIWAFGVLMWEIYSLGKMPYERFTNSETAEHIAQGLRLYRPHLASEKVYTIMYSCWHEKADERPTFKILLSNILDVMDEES
Test: Binding kinetics measurements (Surface Plasmon Resonance) on BTK T316A
Conditions: target residence time, SPR
PROPERTY LABEL: Tau (h) BTK T316A (Act)

COMPOUND	TEST TARGET	OUTPUT UNIT	Tau (h) BTK T316A (Act)
Nc1ncc2c3c1c(-c1ccc(C(=O)Nc4cc(C(F)(F)F)ccn4)cc1)nn3[C@@H]1CCC[C@H](C1)NC(=O)COCCC/C=C/2 [Example 18]	BTK T316A (Homo sapiens (Human), UniProt Q06187, T316A)	h	4.74
Nc1ncc2c3c1c(-c1ccc(C(=O)Nc4cc(C(F)(F)F)ccn4)cc1)nn3[C@@H]1CCC[C@H](C1)NC(=O)CCCOC/C=C/2 [Example 27]	BTK T316A (Homo sapiens (Human), UniProt Q06187, T316A)	h	3.37
C[C@@H]1CCn2nc(-c3ccc(C(=O)Nc4cc(C(F)(F)F)ccn4)cc3)c3c(N)ncc(c32)/C=C/CCOCC(=O)N1 [Example 59]	BTK T316A (Homo sapiens (Human), UniProt Q06187, T316A)	h	1.04

(A) Nc1ncc2c3c1c(-c1ccc(C(=O)Nc4cc(C(F)(F)F)ccn4)cc1)nn3[C@@H]1CC[C@H](C1)NC(=O)CCOCC/C=C/2 [Example 169]
(B) Nc1ncc2c3c1c(-c1ccc(C(=O)Nc4cc(C(F)(F)F)ccn4)cc1)nn3[C@@H]1CCC[C@H](C1)NC(=O)CCOCC/C=C/2 [Example 26]
Query block: Please tell me which of the two, A or B , has the higher reported Tau (h) BTK T316A (Act) value. Answer by stating the label of the chosen item.
Result block: B

(a) Nc1ncc2c3c1c(-c1ccc(C(=O)Nc4cc(C(F)(F)F)ccn4)cc1)nn3[C@@H]1CCC[C@H](C1)C(=O)NCCCCCCC2 [Example 115]
(b) Nc1ncc2c3c1c(-c1ccc(C(=O)Nc4cc(C(F)(F)F)ccn4)cc1F)nn3[C@@H]1CCC[C@H](C1)NC(=O)CCC/C=C/2 [Example 7]
(c) NC(=O)[C@H]1CCN(c2ncnc(N)c2F)C[C@@H]1N1CCC[C@@H](Nc2cc(Cl)cc(C(F)(F)F)c2)C1=O [vecabrutinib, reference compound]
Query block: Highest Tau (h) BTK T316A (Act) first, then in falling order down to the smallest. // ordering of labels required in reply
Result block: a, b, c

* * *

System: REC-1 T474I cell lines
Experiment: Cell proliferation assay REC-1 BTK T474I knock-in cells (ATPlite, 72 hours)
Format: cell-based
Conditions: 72 hours; read-out: IC50 REC-1 T474I
# key: entry, value: IC50

COMPOUND	TEST TARGET	IC50
C[C@@H]1CC(=O)N[C@@H]2CC[C@H](C2)c2nc(-c3ccc(C(=O)Nc4cc(C#N)ccn4)cc3)c3c(N)ncc(n23)/C=C/CCN1 [Example 218]	REC-1 T474I cell lines	0.5 to 10 µM

Turning to the following compound.
GET /value?item= CC1NC/C=C/c2cnc(N)c3c(-c4ccc(C(=O)Nc5cc(C(F)(F)F)ccn5)cc4)nn(c23)CC[C@@H](C)NC1=O (single isomer, unassigned) [Example 144] &field=IC50 returns 0.5 to 10 µM

* * *

Let's go through some IC50 measurements on UniProt Q06187 together.

// known answers, use as guide
MOLECULE	IC50
Nc1ncc2c3c1c(-c1ccc(C(=O)Nc4cc(C(F)(F)F)ccn4)cc1)nn3[C@@H]1CCC[C@H](C1)NC(=O)[C@H]1CCN1CC/C=C/2	< 5 nM
C[C@H]1OC/C=C/c2cnc(N)c3c(-c4ccc(C(=O)Nc5cc(C(F)(F)F)ccn5)cc4)nn(c23)[C@@H]2CCC[C@H](C2)NC1=O	< 5 nM
Nc1ncc2c3c1c(-c1ccc(C(=O)Nc4ccccn4)cc1)nn3[C@@H]1CCC[C@H](C1)NC(=O)CCCCC/C=C\C2 [Example 102b]	5 to 50 nM
Nc1ncc2c3c1c(-c1ccc(C(=O)Nc4cc(C(F)(F)F)ccn4)cc1)nn3[C@@H]1CCC[C@H](C1)NC(=O)CCOCC/C=C/2	< 5 nM
Nc1ncc2c3c1c(-c1ccc(C(=O)Nc4cc(C(F)(F)F)ccn4)cc1)nn3[C@@H]1CCC[C@H](C1)NC(=O)CCC/C=C\C2 [Example 94b]	< 5 nM

Turning to the following molecule.
Record for Nc1ncc2c3c1c(-c1ccc(C(=O)Nc4cc(C(F)(F)F)ccn4)cc1)nn3[C@@H]1CCC[C@H](C1)NC(=O)[C@H]1CN(C/C=C/2)CCN1 under target or system UniProt Q06187: IC50 reported as < 5 nM

* * *

Target: full-length BTK C481S enzyme (Homo sapiens (Human), UniProt Q06187, C481S)
Sequence (Q06187 whole entry C481S): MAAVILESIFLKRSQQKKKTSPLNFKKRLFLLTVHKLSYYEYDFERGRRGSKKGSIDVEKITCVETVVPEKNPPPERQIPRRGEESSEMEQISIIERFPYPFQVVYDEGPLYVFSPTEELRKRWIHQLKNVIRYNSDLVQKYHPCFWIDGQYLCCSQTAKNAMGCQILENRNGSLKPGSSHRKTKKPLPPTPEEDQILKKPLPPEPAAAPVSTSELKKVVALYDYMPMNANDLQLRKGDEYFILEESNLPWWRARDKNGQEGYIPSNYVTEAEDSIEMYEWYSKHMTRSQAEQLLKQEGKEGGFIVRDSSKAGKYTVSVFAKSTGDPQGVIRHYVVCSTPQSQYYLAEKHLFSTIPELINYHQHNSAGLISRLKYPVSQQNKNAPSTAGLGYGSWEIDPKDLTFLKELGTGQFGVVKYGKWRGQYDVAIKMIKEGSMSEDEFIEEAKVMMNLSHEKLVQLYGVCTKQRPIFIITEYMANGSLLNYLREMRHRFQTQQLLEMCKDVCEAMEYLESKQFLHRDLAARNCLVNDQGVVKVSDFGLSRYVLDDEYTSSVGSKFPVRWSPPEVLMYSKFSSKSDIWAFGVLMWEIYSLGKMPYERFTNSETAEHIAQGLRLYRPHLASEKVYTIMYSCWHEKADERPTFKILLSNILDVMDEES
Experiment: Biochemical kinase assay BTK C481S (IMAP)
Procedure: Biochemical kinase assay BTK […] To determine the inhibitory activity of compounds on BTK C481S enzyme activity, the IMAP® assay (Molecular Devices) was used. […] Fluorescein polarization was measured on an Envision multimode reader (Perkin Elmer, Waltham, MA, U.S.A.). IC50 were calculated using XLfitTM5 software (ID Business Solutions, Ltd., Surrey, U.K.). […]
# key: entry, value: IC50

// known answers, use as guide
SMILES	RESULT
N#Cc1ccnc(NC(=O)c2ccc(-c3nn4c5c(cnc(N)c35)/C=C/COCCC(=O)N[C@@H]3CCC[C@@H]4C3)cc2)c1	< 5 nM
Nc1ncc2c3c1c(-c1ccc(C(=O)Nc4cc(C(F)(F)F)ccn4)cc1)nn3[C@@H]1CCC[C@H](C1)NC(=O)CNC[C@@H](O)/C=C/2	< 5 nM
Nc1ncc2c3c1c(-c1ccc(C(=O)Nc4ccccn4)cc1)nn3[C@@H]1CCC[C@H](C1)NC(=O)CCCCCCC2	< 5 nM

Record for Nc1ncc2n3c(nc(-c4ccc(C(=O)Nc5cc(C(F)(F)F)ccn5)cc4)c13)[C@@H]1CC[C@H](C1)NC(=O)CCOC/C=C/2 under target or system full-length BTK C481S enzyme (Homo sapiens (Human), UniProt Q06187, C481S): IC50 reported as < 5 nM

Record for Cn1nc(NC(=O)c2ccc(-c3nc4n5c(cnc(N)c35)/C=C/CCOCCC(=O)N[C@@H]3CC[C@@H]4C3)cc2)cc1C(F)(F)F under target or system full-length BTK C481S enzyme (Homo sapiens (Human), UniProt Q06187, C481S): IC50 reported as < 5 nM

Record for Nc1ncc2c3c1c(-c1ccc(C(=O)Nc4cc(C(F)(F)F)ccn4)cc1)nn3[C@@H]1CCC[C@H](C1)NC(=O)COCCC/C=C/2 under target or system full-length BTK C481S enzyme (Homo sapiens (Human), UniProt Q06187, C481S): IC50 reported as < 5 nM

* * *

Target: full-length BTK C481S enzyme (Homo sapiens (Human), UniProt Q06187, C481S)
Assay: Biochemical kinase assay BTK C481S (IMAP)
pIC50: −log10 of the molar value.
PROPERTY LABEL: pIC50

GET /value?item= Nc1ncc2c3c1c(-c1ccc(C(=O)Nc4cc(C(F)(F)F)ccn4)cc1)nn3[C@@H]1CCC[C@H](C1)NC(=O)CCC/C=C/C2 [Example 94a] &field=pIC50 returns 7.30 to 8.30
